- System: OVCAR-8
- protocol-details: NCI tumour cell line growth inhibition, 48 h
Active and inactive are the calls of the source. No stated cut-off is given here; in the data, active = GI50 up to about 1.1 µM and inactive = higher.
Bench note: report the call from active, inactive

* O=C1c2ccccc2-c2ccccc2C(=O)C1(Br)Br | inactive

Would you mind telling me which call this test gave `O=C(NC(=O)c1cc2cc(Br)cc(Br)c2oc1=O)Oc1ccccc1` ? inactive

Now try CCOC(=O)C(C#N)(Cc1c[nH]c2ccccc12)NC(C)=O (stereo not given) . inactive

Now try `COc1cc(-c2oc3ccccc3c(=O)c2O)cc(OC)c1OC` . inactive

----------
- System: HT-29
- protocol-details: NCI tumour cell line growth inhibition, 48 h
Activity calls are given as the source filed them. Rule as the data show it: active = GI50 up to about 1.1 µM and inactive = higher.
GI50 overview

Check out these entries, answers already filled in.
• NC(=O)c1csc(C2(O)COC(CO)C2O)n1 (stereo unspecified) = > 100 µM (inactive)
• COC(=O)c1cc(Br)c(C(=O)C(Cl)(Cl)Cl)[nH]1 = > 100 µM (inactive)
• O=C(NC(=O)c1cc2cc(Br)cc(Br)c2oc1=O)Oc1ccccc1 = > 100 µM (inactive)

What value of GI50 has been reported for the following compound? `CCCCCCc1cc2cc(C(=O)Nc3ccccc3F)c(=N)oc2cc1O` 24.7 µM (inactive)

Now try `O=S1(=O)OCCOS(=O)(=O)C1S(=O)(=O)c1cccc2ccccc12` . 52.7 µM (inactive)

Now try `COc1ccc(/C=C(\C#N)c2ccccn2)cc1OC` . 43 µM (inactive)
